Please go through the items and note down their log10(Ki).
Biological target: KOR (Homo sapiens)
Construct: expressed in transfected cells; host or cells: CHO (hKOR-CHO)
Sequence (P41145 whole entry): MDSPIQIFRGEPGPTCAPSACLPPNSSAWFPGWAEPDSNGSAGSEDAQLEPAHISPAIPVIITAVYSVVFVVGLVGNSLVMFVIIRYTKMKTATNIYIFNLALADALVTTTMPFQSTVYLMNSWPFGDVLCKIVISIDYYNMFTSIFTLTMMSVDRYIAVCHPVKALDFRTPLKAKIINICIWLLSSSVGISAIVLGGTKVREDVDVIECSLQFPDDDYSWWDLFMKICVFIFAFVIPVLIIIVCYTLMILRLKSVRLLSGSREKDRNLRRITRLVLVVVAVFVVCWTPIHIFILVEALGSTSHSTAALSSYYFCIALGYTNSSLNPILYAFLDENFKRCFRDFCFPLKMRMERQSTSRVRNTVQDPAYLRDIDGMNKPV
Assay: biochemical
Format: binding
Settings: read-out: Ki ± SEM KOR
In plain terms, each number is the log10 of measured Ki in µM.

Query COC12Cc3cc(-c4ccc(Cl)cc4)cnc3C3Oc4c(O)ccc5c4C31CCN(C)C2C5 (stereo not drawn) [Compound 17e] yields log10(Ki) of -1.55

Query CN1CCC23c4c5ccc(O)c4OC2c2ncc(-c4ccc(Cl)cc4)cc2CC3(OC(=O)Cc2ccccc2)C1C5 (stereo not drawn) [Compound 18e] yields log10(Ki) of -1.77

Query O=C(Cc1ccccc1)OC12Cc3cc(-c4ccc(Cl)cc4)cnc3C3Oc4c(O)ccc5c4C31CCN(CC1CC1)C2C5 (stereo not drawn) [Compound 18b] yields log10(Ki) of -2.51

Query CN1CCC23c4c5ccc(O)c4OC2c2ncc(-c4ccc(Cl)cc4)cc2CC3(OCC=Cc2ccccc2)C1C5 (stereo not drawn) [Compound 17g] yields log10(Ki) of -2.81

Query CN1CCC23c4c5ccc(O)c4OC2c2ncc(-c4ccc(Cl)cc4)cc2CC3(OCCCc2ccccc2)C1C5 (stereo not drawn) [Compound 17h] yields log10(Ki) of -2.82

Query CN1CCC23c4c5ccc(O)c4OC2c2ncc(-c4ccc(Cl)cc4)cc2CC3(OC(=O)c2ccccc2)C1C5 (stereo not drawn) [Compound 18d] yields log10(Ki) of -0.95

Query O=C(CCc1ccccc1)O[C@@]12Cc3cc(-c4ccc(Cl)cc4)cnc3[C@@H]3Oc4c(O)ccc5c4[C@@]31CCN(CC1CC1)[C@@H]2C5 [Compound 18c] yields log10(Ki) of -1.92

Query COC12Cc3cc(-c4ccc(Cl)cc4)cnc3C3Oc4c(O)ccc5c4C31CCN(CC1CC1)C2C5 (stereo not drawn) [Compound 17a] yields log10(Ki) of -2.27

Query CN1CCC23c4c5ccc(O)c4OC2c2ncc(-c4ccc(Cl)cc4)cc2CC3(OCc2ccccc2)C1C5 (stereo not drawn) [Compound 17f] yields log10(Ki) of -1.31
